assay: LNP encapsulation efficiency of RNA (Ribogreen fluorescence assay); assay type: physicochemical; details: Table 3, Experiments 1-13; LNP 50% ionizable lipid, 38% cholesterol, 9% DSPC, 3% PEG2K-DMG; sgRNA:mRNA 1:2
Documented % E (encapsulation efficiency) across a set of molecules
Express it in %; write the number only.

molecule | % E (encapsulation efficiency), %
CCCCC/C=C\C/C=C\CCCCCCCC(=O)OCC(CCCCC(=O)OC(CCCCCC)CCCCCC)COC(=O)OCCCN(CC)CC (stereo not drawn) | 99
CCCCCCCCC(CCCCCCCC)OC(=O)CCCC(=O)OCC(C)(COC(=O)CCCC(=O)OC(CCCCCCCC)CCCCCCCC)COC(=O)NCCN(CC)CC | 98
CCCCC/C=C\C/C=C\CCCCCCCC(=O)OCC(CCCCCCCCC(=O)OC(CCCCCC)CCCCCC)COC(=O)OCCCN(CC)CC (stereo not drawn) | 99
CCCCC/C=C\C/C=C\CCCCCCCC(=O)OCC(CCCCCCCCC(=O)OCC(CCCC)CCCCCC)COC(=O)OCCCN(CC)CC (stereo not drawn) | 98
CCCCCCC(CCCCCC)OC(=O)CCCC(=O)OCC(COC(=O)CCCC(=O)OC(CCCCCC)CCCCCC)COC(=O)NCCN(CC)CC | 99

Turning now to a further molecule:
// sample CCCCCCCCC(CCCCCCCC)OC(=O)CCCCCC(=O)OCC(CCCCCCCCC(=O)OCC(CCCC)CCCCCC)COC(=O)NCCN(CC)CC (stereo not drawn) , its % E (encapsulation efficiency) was 99
